All values here come from patent US20230212244A1.

Kindly supply the reported peptide exchange yield values for the records listed here.
Target: T1, HLA-A*02:01 (human)
T1 construct: MHC class I monomer made peptide-receptive by UV cleavage of a UV-sensitive ligand; also called peptide-receptive MHC molecules
Test: UV-ligand exchange ELISA (anti-β2m), peptide exchange yield grade

Req: Look up peptide exchange yield: YLMGFLHAV [peptide YLMGFLHAV (SEQ ID NO: 74)]
Resp: 50 to 75%

Req: Look up peptide exchange yield: VLVDQSWVL [peptide VLVDQSWVL (SEQ ID NO: 16)]
Resp: 50 to 75%

Req: Look up peptide exchange yield: ALDSSNSMQTI [peptide ALDSSNSMQTI (SEQ ID NO: 52)]
Resp: 20 to 50%

Req: Look up peptide exchange yield: SILQFVHMV [peptide SILQFVHMV (SEQ ID NO: 68)]
Resp: 50 to 75%

Req: Look up peptide exchange yield: RLAELTVDEFL [peptide RLAELTVDEFL (SEQ ID NO: 4)]
Resp: 50 to 75%

Req: Look up peptide exchange yield: LVYQFVHPI [peptide LVYQFVHPI (SEQ ID NO: 116)]
Resp: 20 to 50%

Req: Look up peptide exchange yield: QVWEIQHTV [peptide QVWEIQHTV (SEQ ID NO: 51)]
Resp: 20 to 50%

Req: Look up peptide exchange yield: FLDANGHFV [peptide FLDANGHFV (SEQ ID NO: 23)]
Resp: 50 to 75%

Req: Look up peptide exchange yield: ALMLQGVDLL [peptide ALMLQGVDLL (SEQ ID NO: 8)]
Resp: 50 to 75%

Req: Look up peptide exchange yield: WLFDDGGLTL [peptide WLFDDGGLTL (SEQ ID NO: 5)]
Resp: ≥ 75%

Req: Look up peptide exchange yield: ILFSEDSTKLFV [peptide ILFSEDSTKLFV (SEQ ID NO: 153)]
Resp: 50 to 75%

Req: Look up peptide exchange yield: RLLENMTEVV [peptide … (SEQ ID NO: 148)]
Resp: 50 to 75%

Req: Look up peptide exchange yield: KSMDIVLTV [peptide KSMDIVLTV (SEQ ID NO: 94)]
Resp: 50 to 75%

Req: Look up peptide exchange yield: RTFEKIEEV [peptide RTFEKIEEV (SEQ ID NO: 133)]
Resp: 20 to 50%

Req: Look up peptide exchange yield: FLSSLKGGLL [peptide FLSSLKGGLL (SEQ ID NO: 18)]
Resp: 50 to 75%

Req: Look up peptide exchange yield: QLYEEPDTKL [peptide QLYEEPDTKL (SEQ ID NO: 82)]
Resp: 20 to 50%

Req: Look up peptide exchange yield: FLKNELDNV [peptide FLKNELDNV (SEQ ID NO: 161)]
Resp: 50 to 75%
